Entry source: patent US20090291081A1

Below, each entry is listed with its recorded IL-1α IC50.
# testedOn: T1, human IL-1α (human, UniProt P01583 113-271)
# T1 sequence (looked up): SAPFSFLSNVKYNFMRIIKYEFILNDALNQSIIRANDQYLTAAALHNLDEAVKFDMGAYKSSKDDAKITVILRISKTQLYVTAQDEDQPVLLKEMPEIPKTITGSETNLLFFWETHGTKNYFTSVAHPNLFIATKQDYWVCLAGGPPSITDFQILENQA
# assayProtocol: cell-based or functional assay
API: value field is a number in nM; no unit string.

Below, each entry is followed by its recorded IL-1α IC50 result.
binder	measurementUnits	IL-1α IC50
ABT2-108-620x/ABT1-122-750MT hu IgG1 wt (bispecific antibody, V domains shown) VH: EVQLLESGGGLVQPGGSLRLSCAASGFTFAEESWMWVRQAPGKGLEWVSRIGQDGKNTYYREDVKGRFTISRDNSKNTLYLQMNSLRAEDTAVYYCAKYTGRIMGHHLFDYWGQGTLVTVSS VL: DIQMTQSPSSLSASVGDRVTITCSASQHIWTEMSWYQQKPGKTPKLLIYGSASRQKGVPSRFSGSGSGTDFTLTISSLQPEDFATYYCKQFAYFPNTFGQGTKVEIKR	nM	10.1
ABT2-65-17/ABT1-212 hu IgG1/K wt (bispecific antibody, V domains shown) VH: EVQLLESGGGLVQPGGSLRLSCVASGFTFEDYQMGWVRQAPGKGLEWVSSISAMGNRTYYADSVKGRFTISRDDSKNTLYLQMNSLRAEDTAVYYCAQNLVRLGRSRWMFDYWGQGTLVTVSS VL: DIQMTQSPSSLSASVGDRVTITCRASQRINGNLRWYQQKPGKAPKLLIYSVSQLQSGVPSRFSGSGSGTDFTLTISSLQPEDFATYYCQQGYDWPPTFGQGTKVETKR	nM	100
ABT2-108-538x/ABT1-122-555 hu IgG1/K wt (bispecific antibody, V domains shown) VH: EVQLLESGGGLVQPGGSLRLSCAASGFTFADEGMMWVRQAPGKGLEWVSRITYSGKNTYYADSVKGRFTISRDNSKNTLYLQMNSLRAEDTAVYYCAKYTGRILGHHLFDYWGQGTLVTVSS VL: DIQMTQSPSSLSASVGDRVTITCRASQPIWTELNWYQQKPGKTPKLLIYGSSSLQSGVPSRFSGSGSGTDFTLTISSLQPEDFATYYCQQFAYFPATFGQGTKVEIKR	nM	25
ABT2-65-201/ABT1-95-15 hu IgG1/K mut (234; 235) (bispecific antibody, V domains shown) VH: EVQLLESGGGLVQPGGSLRLSCVASGFTFEDYQMGWVRQAPGKGLEWVSSISAMGRRTYYADSVKGRFTISRDNSKNTLYLQMNSLRAEDTAVYYCAQNLVRLGRSRWMFDYWGQGTLVTVSS VL: DIQMTQSPSSLSASVGDRVTITCRASQPIVRNLRWYQQKPGKAPKLLIYSSSYLEPGVPSRFSGSGSGTDFTLTISSLQPEDFATYHCQQGYRWPVTFGQGTKVEIKR	nM	0.652

Now look at this entry.
Prompt: What value of IL-1α IC50 has been reported for the following binder? ABT2-108-521/ABT1-141-25 hu IgG1/K wt (bispecific antibody, V domains shown) VH: EVQLLESGGGLVQPGGSLRLSCAASGFTFAEYTMMWVRQAPGKGLEWVSRIGQDGKNTYYADSVKGRFTISRDNSKNTLYLQMNSLRAEDTAVYYCAKYTGRILGHHLFDYWGQGTLVTVSS VL: DIQMTQSPSSLSASVGDRVTITCRASQWIQKQLAWYQQKPGKAPKLLIYSSSYLQSGVPSRFSGSGSGTDFTLTISSLQPEDFATYYCQQHLRVPMTFGQGTKVEIKR
Response: 20
